Assignment: determine reported fraction ligated for the given variants.
B1: F1*; the commonest letter at each place (parent)
chain: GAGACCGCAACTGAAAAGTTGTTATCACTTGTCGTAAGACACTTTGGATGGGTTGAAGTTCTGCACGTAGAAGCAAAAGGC

Variants of: B1
Test: fraction ligated after 30 min (ligated reads / total reads); higher = more ligase activity
Conditions: with F1*sub RNA substrate (template-directed ligation), 42 °C
Write the number on its own, no unit after it.

Q: Consider the variant shown here: C40T A41C What is its recorded fraction ligated?
A: 0.78

Q: Consider the variant shown here: T35A G47A What is its recorded fraction ligated?
A: 0.811

Q: Consider the variant shown here: A39T G55A What is its recorded fraction ligated?
A: 0.786

Q: Consider the variant shown here: C33A T44G What is its recorded fraction ligated?
A: 0.821

Q: Consider the variant shown here: A36G G55T What is its recorded fraction ligated?
A: 0.809

Q: Consider the variant shown here: T23C G50T What is its recorded fraction ligated?
A: 0.782

Q: Consider the variant shown here: G34C G38A What is its recorded fraction ligated?
A: 0.813

Q: Consider the variant shown here: T25C A41T What is its recorded fraction ligated?
A: 0.82

Q: Consider the variant shown here: C28T T32G What is its recorded fraction ligated?
A: 0.8

Q: Consider the variant shown here: A27G A39T What is its recorded fraction ligated?
A: 0.814

Q: Consider the variant shown here: A27G C42T What is its recorded fraction ligated?
A: 0.817

Q: Consider the variant shown here: T23G G55C What is its recorded fraction ligated?
A: 0.809

Q: Consider the variant shown here: G34A A56T What is its recorded fraction ligated?
A: 0.819

Q: Consider the variant shown here: C28T T44C What is its recorded fraction ligated?
A: 0.783

Q: Consider the variant shown here: C40A A57C What is its recorded fraction ligated?
A: 0.812

Q: Consider the variant shown here: T30C A57C What is its recorded fraction ligated?
A: 0.777

Q: Consider the variant shown here: T29G T43C What is its recorded fraction ligated?
A: 0.817

Q: Consider the variant shown here: T29C G34T What is its recorded fraction ligated?
A: 0.823

Q: Consider the variant shown here: T44C A48C What is its recorded fraction ligated?
A: 0.783

Q: Consider the variant shown here: C28T G38C What is its recorded fraction ligated?
A: 0.799

Q: Consider the variant shown here: A37G A56G What is its recorded fraction ligated?
A: 0.818

Origin of the recorded values: the supplement of paper PMC6755084
